Reported DC50 values for a set of molecules
- system.tested: BRG1 (Homo sapiens)
- Construct: either BRM primary antibody (Cell signaling Cat #11966) or BRG primary antibody (Abcam, ab 110641); endogenous in cells; host or cells: SW1573
- Sequence (P51532 whole entry): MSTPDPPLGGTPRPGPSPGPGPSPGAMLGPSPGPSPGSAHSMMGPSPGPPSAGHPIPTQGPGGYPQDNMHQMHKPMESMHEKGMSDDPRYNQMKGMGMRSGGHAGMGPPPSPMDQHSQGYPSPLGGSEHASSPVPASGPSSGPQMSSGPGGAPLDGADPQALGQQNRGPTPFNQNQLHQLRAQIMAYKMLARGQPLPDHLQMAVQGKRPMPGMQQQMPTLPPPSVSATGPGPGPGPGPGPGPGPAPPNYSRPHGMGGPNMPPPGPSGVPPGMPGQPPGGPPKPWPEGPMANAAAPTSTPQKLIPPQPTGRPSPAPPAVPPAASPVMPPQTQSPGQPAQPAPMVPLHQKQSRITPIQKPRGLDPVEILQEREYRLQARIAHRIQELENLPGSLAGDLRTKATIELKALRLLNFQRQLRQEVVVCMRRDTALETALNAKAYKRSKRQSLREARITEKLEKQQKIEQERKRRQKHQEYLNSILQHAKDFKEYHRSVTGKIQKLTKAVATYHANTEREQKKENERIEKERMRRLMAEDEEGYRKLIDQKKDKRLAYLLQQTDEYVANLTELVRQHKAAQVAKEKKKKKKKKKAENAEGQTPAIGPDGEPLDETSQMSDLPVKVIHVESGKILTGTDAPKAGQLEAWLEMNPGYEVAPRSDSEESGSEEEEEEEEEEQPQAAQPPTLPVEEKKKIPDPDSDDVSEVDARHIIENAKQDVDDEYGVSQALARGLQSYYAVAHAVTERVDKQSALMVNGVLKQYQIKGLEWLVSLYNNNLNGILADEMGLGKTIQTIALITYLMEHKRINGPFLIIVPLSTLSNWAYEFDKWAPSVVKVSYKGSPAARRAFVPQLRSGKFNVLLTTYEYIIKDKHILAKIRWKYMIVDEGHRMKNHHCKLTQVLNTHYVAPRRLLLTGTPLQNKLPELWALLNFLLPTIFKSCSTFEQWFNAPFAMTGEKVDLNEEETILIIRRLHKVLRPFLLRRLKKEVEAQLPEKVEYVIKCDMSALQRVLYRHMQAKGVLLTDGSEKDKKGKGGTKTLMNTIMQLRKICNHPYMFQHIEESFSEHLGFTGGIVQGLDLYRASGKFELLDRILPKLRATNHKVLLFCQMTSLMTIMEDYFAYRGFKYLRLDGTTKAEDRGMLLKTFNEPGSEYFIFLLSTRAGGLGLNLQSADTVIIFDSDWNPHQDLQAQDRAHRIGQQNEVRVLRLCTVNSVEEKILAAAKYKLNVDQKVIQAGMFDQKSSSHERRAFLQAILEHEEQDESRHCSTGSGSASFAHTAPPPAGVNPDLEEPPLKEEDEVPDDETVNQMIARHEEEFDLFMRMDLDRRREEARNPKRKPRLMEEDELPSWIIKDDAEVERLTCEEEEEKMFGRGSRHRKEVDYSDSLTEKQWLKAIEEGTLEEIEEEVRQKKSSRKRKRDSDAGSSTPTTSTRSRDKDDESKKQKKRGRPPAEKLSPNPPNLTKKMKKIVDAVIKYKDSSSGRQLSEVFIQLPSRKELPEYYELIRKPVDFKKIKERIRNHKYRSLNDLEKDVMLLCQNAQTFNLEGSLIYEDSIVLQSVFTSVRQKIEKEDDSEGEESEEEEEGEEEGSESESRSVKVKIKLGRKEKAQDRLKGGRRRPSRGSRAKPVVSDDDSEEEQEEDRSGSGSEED
- test: Immunofluorescence assay for BRG1 degradation in SW1573 cells
- Type: cell-based
- condition.context: 20 hours incubation, immunofluorescence mean nuclear signal, read-out: BRG1 IF Degradation IC50

Nc1nnc(-c2ccccc2O)cc1N1CC2CCC(C1)N2c1ccnc(C#CCN2CCC23CCOC3)c1 (stereo not drawn) [Compound 69]; < 10 nM
C[C@H]1CCN(CC#Cc2cc(N3C4CCC3CN(c3cc(-c5ccccc5O)nnc3N)C4)ccn2)C1; < 10 nM
CC1(C)CCN1CC#Cc1cc(N2C3CCC2CN(c2cc(-c4ccccc4O)nnc2N)C3)ccn1; < 10 nM
CC1CN(CC#Cc2cc(N3C4CCC3CN(c3cc(-c5ccccc5O)nnc3N)C4)ccn2)CC(C)O1 (stereo not drawn); > 100 nM
Nc1nnc(-c2ccccc2O)cc1N1CC2CCC(C1)N2c1ccnc(C#CCCCCO)c1; > 100 nM
Nc1nnc(-c2ccccc2O)cc1N1CC2CCC(C1)N2c1ccnc(C#CCN2CCCC(O)CC2)c1 (stereo not drawn); < 10 nM
CN1C[C@@H]2C[C@H]1CN2CC#Cc1cc(N2C3CCC2CN(c2cc(-c4ccccc4O)nnc2N)C3)ccn1; > 100 nM
Nc1nnc(-c2ccccc2O)cc1N1CC2CCC(C1)N2c1ccnc(C#CCN2CCCCC23CC3)c1; < 10 nM
COC(=O)C1CCN1CC#Cc1cc(N2C3CCC2CN(c2cc(-c4ccccc4O)nnc2N)C3)ccn1 (stereo not drawn); > 100 nM
Nc1nnc(-c2ccccc2O)cc1N1CC2CCC(C1)N2c1ccnc(C#CC2CNCCO2)c1 (stereo not drawn); > 100 nM

Q) Fill in the recorded DC50 for this molecule, with BRG1 (Homo sapiens) as test system: CC1CCCCN(CC#Cc2cc(N3C4CCC3CN(c3cc(-c5ccccc5O)nnc3N)C4)ccn2)C1 (stereo not drawn)
A) < 10 nM

Q) Param readout= DC50; system= BRG1 (Homo sapiens); entry= N#CCC1CCN(CC#Cc2cc(N3C4CCC3CN(c3cc(-c5ccccc5O)nnc3N)C4)ccn2)CCC1(F)F (stereo not drawn) ; returns value.
A) > 100 nM

---

- system.tested: BRG1 (Homo sapiens)
- Construct: either BRM primary antibody (Cell signaling Cat #11966) or BRG primary antibody (Abcam, ab 110641); endogenous in cells; host or cells: SW1573
- test: Immunofluorescence assay for BRG1 degradation in SW1573 cells
- Assay type: cell-based
- condition.context: SW1573, 20 h, 20 hours incubation, normalized to a known degrader control, read-out: BRG1 IF Degradation Sinf (%)
Recorded Dmax, one value per entry.

Worked cases, answers included:
Nc1nnc(-c2ccccc2O)cc1N1CC2CCC(C1)N2c1ccnc(C#CCN2CCCC(F)CC2)c1 (stereo not shown) [Compound 193]; 71 to 120%
Nc1nnc(-c2ccccc2O)cc1N1CC2CCC(C1)N2c1ccnc(C#CCN2CC3CC2C3)c1 [Compound 86]; 30 to 70%
Nc1nnc(-c2ccccc2O)cc1N1CC2CCC(C1)N2c1ccnc(C#CCN2CC(F)(C3CC3)C2)c1 [Compound 238]; 30 to 70%

Consider the record given below.
Q) Which Dmax value belongs to Nc1nnc(-c2ccccc2O)cc1N1CC2CCC(C1)N2c1ccnc(C#CCN2C[C@@H]3[C@@H](CO)[C@@H]3C2)c1 [Compound 118] ?
A) 30 to 70%
